target: c-Met (baculovirus expressed human c-Met kinase domain P948-S1343) (Homo sapiens, UniProt P08581)
Construct: human c-Met kinase domain P948-S1343; host or cells: baculovirus expression
Sequence (P08581 1011-1343 limits assumed): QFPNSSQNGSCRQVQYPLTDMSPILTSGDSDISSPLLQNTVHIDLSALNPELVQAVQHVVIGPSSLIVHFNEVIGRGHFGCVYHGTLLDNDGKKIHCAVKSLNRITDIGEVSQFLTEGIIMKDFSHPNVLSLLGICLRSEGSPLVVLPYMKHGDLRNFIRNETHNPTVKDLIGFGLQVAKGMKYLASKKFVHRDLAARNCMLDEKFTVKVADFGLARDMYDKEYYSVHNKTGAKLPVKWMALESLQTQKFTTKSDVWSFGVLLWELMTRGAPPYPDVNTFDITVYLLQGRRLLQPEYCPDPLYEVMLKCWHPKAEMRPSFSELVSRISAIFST
procedure-summary: c-Met Luciferase-Coupled Chemiluminescent Kinase assay (LCCA);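 note: kinase activity read as percent ATP left after reaction, by luciferase-luciferin chemiluminescence, with 1 µM ATP and 1 µM poly-EY substrate, 2 h at ambient temperature, 10-point dose-response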
Type: biochemical
measurement-conditions: Table 4, inhibition as IC50 class
assay-readout: IC50

Worked set:
# given-smiles, IC50
records = [
    ("COc1cc2nccc(Oc3ncc(NC(=O)CC(=O)Nc4ccc(F)cc4F)cc3Cl)c2cc1OC", "< 50 nM"),
    ("COc1cc2c(Oc3ccc(NC(=O)C(=O)NCc4ccccc4OC(F)(F)F)cc3F)ccnc2cc1OCC1CCNCC1", "< 50 nM"),
    ("COc1cc2c(Oc3ccc(NC(=O)C(=O)NCc4cnccn4)cc3F)ccnc2cc1OCC1CCNCC1", "50 to 500 nM"),
]

[Q] Indicate its recorded IC50; the compound in question is "COc1cc2c(Oc3ccc(NC(=O)C(=O)NCc4cccc(OC(F)(F)F)c4)cc3F)ccnc2cc1OCC1CCNCC1"
[A] < 50 nM

###

Hi there, I'd appreciate the recorded pIC50 for every entry that follows.
target: Flt-3 (baculovirus expressed human Flt-3 kinase domain R571-S993) (Homo sapiens, UniProt P36888);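 note: Luciferase-coupled chemiluminescent kinase assay, activity read as percent ATP left after a 3 h reaction at room temperature, ATP near KM, 10-point dose-response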
Construct: human Flt-3 kinase domain R571-S993; host or cells: baculovirus expression
Sequence (P36888 571-993): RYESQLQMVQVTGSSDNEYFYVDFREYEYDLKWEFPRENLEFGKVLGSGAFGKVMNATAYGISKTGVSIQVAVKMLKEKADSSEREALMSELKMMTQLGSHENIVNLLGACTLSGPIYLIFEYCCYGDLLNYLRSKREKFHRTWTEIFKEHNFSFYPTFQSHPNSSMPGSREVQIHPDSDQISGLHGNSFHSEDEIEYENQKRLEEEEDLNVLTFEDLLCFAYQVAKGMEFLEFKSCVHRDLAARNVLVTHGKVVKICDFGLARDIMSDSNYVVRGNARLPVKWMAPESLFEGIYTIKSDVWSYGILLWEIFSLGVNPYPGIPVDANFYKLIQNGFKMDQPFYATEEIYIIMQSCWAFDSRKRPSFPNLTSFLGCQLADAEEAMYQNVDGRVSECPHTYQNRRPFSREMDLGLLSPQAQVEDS
procedure-summary: biochemical
measurement-conditions: Table 4, inhibition as IC50 class; read-out: flt3 IC50
pIC50: −log10 of the molar value.

# molecule, pIC50
records = [
    ("COc1cc2c(Oc3ccc(NC(=O)C(=O)NCC(O)c4ccccc4)cc3F)ccnc2cc1OCC1CCNCC1 (stereo not shown)", "6.30 to 7.30"),
    ("COc1cc2c(Oc3ccc(NC(=O)C(=O)NCc4cc(F)cc(F)c4)cc3F)ccnc2cc1OCC1CCNCC1", "6.30 to 7.30"),
    ("COc1ccc(CCN(C)C(=O)C(=O)Nc2ccc(Oc3ccnc4cc(OCC5CCNCC5)c(OC)cc34)c(F)c2)cc1OC", "> 7.30"),
]

[Q] Please list pIC50 recorded for the molecule "COc1cc2c(Oc3ccc(NC(=O)C(=O)Nc4cccc(F)c4)cc3F)ccnc2cc1OCC1CCNCC1"
[A] 5.30 to 6.30

###

target: KDR (baculovirus expressed human KDR kinase domain D807-V1356) (Homo sapiens, UniProt P35968);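 note: Luciferase-coupled chemiluminescent kinase assay, activity read as percent ATP left after 4 h reaction at ambient temperature, ATP near KM, 10-point dose-response in 384-well plates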
Construct: human KDR kinase domain D807-V1356; host or cells: baculovirus expression
Sequence (P35968 807-1356): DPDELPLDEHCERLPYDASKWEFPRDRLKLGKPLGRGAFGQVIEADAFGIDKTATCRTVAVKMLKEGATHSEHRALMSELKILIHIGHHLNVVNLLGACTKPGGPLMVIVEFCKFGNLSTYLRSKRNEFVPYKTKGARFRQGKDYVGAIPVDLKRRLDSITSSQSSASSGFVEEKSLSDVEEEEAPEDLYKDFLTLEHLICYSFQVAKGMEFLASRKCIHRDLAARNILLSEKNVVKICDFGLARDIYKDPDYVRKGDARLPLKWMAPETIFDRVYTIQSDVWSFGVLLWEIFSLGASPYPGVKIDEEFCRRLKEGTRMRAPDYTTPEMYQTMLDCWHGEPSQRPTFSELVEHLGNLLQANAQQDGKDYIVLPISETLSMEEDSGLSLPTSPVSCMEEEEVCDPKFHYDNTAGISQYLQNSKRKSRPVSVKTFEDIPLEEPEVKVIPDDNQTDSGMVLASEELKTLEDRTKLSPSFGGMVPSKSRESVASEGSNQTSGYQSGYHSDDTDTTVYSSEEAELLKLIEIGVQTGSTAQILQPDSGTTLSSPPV
procedure-summary: biochemical
pIC50: −log10 of the molar value.
Kindly supply the reported pIC50 values for the records listed here.

Take a look at these entries with their results.
# compound, assay-readout, result
data = [
    ("COc1cc2nccc(Oc3ccc(NC(=O)C4(C(=O)Nc5cccc(CN6CCCC6)c5)CC4)cc3)c2cc1OC", "pIC50", "> 7.30"),
    ("CCCCNC(=O)C(=O)Nc1ccc(Oc2ccnc3cc(OCC4CCNCC4)c(OC)cc23)c(F)c1", "pIC50", "6.30 to 7.30"),
    ("COc1cc2c(Oc3ccc(NC(=O)C4(C(=O)Nc5ccc(F)cc5)CCC4)cc3F)ncnc2cc1OCCCN1CCN(C)CC1", "pIC50", "> 7.30"),
    ("COc1cc2c(Oc3ccc(NC(=O)C(=O)NCCc4ccc(N)cc4)cc3F)ccnc2cc1OCC1CCNCC1", "pIC50", "6.30 to 7.30"),
    ("COc1cc2nc(N)cc(Oc3ccc(NC(=O)C4(C(=O)Nc5ccc(F)cc5)CC4)cc3F)c2cc1OC", "pIC50", "5.30 to 6.30"),
]

Look at each compound and report its pIC50.
1. COc1cc2ncnc(Oc3ccc(NC(=O)C4(C(=O)Nc5ccc(F)cc5)CC4)cc3)c2cc1OC
2. COc1cc2nccc(Oc3ccc(NC(=O)C(C)NCc4ccccc4)cc3)c2cc1OC (stereo not shown)

[A]
1: > 7.30; 2: 5.30 to 6.30
